Assay: Cmax in mouse at 60 mg/kg, po
Assay type: ADME, organism-based
Design: dose 60 mg/kg, route oral
Conditions: in vivo

# compound-string, result-units, Cmax
rows = [
    ("c1ccc(CNc2ncccc2-c2nnc(Nc3ccc4c(c3)OCCO4)o2)nc1", "µM", 3.8),
]

---

Test: Half life in mouse at 60 mg/kg, ip
Type: ADME, organism-based
Parameters: dose 60 mg/kg, route intraperitoneal
Conditions: in vivo
// half-life lookup, one value per entry

# compound, result-units, half-life
rows = [
    ("c1cnc(NCc2ccncc2)c(-c2nnc(Nc3ccc4c(c3)OCO4)o2)c1", "h", 2.6),
    ("c1cncc(CNc2ncccc2-c2nnc(Nc3ccc4c(c3)OCCO4)o2)c1", "h", 0.8),
    ("c1cnc(NCC2CCCO2)c(-c2nnc(Nc3ccc4c(c3)OCCO4)o2)c1 (centres undefined)", "h", 0.78),
    ("COc1cc(Nc2ncccc2-c2n[nH]c(Nc3ccc4c(c3)OCO4)n2)cc(OC)c1", "h", 0.62),
    ("c1ccc(CNc2ccccc2-c2cnc(Nc3ccc4c(c3)OCCO4)o2)nc1", "h", 2.43),
    ("c1ccc(CNc2ncccc2-c2nnc(Nc3ccc4c(c3)OCO4)o2)nc1", "h", 4.1),
    ("c1ccc(CNc2ccccc2-c2nnc(Nc3ccc4c(c3)OCCO4)o2)nc1", "h", 1.5),
    ("c1ccc(CNc2ccsc2-c2nnc(Nc3ccc4c(c3)OCCO4)o2)nc1", "h", 0.75),
    ("c1ccc(CNc2ncccc2-c2nnc(Nc3ccc4c(c3)OCCO4)o2)nc1", "h", 2.7),
]

---

Here, each record is paired with measured pEC50 data.
Test system: A-431
Test: Cell cycle arrest in A431 cells by accumulation at G2/M phase
Format: functional, cell-based
Details: Homo sapiens
pEC50: −log10 of the molar value.
endpoint-label: pEC50

# compound, endpoint-label, result-number
records = [
    ("COc1ccc(Nc2nnc(-c3cccnc3NCc3ccccn3)o2)cc1", "pEC50", 7.70),
    ("c1cncc(CNc2ncccc2-c2nnc(Nc3ccc4c(c3)OCCO4)o2)c1", "pEC50", 7.89),
    ("FC1(F)Oc2ccc(Nc3nnc(-c4cccnc4NCc4ccccn4)o3)cc2O1", "pEC50", 6.11),
    ("c1ccc(CNc2ccccc2-c2nnc(Nc3ccc4c(c3)OCCO4)o2)nc1", "pEC50", 7.85),
    ("CS(=O)(=O)Nc1ccc(CNc2ncccc2-c2nnc(Nc3ccc4c(c3)OCCO4)o2)cc1", "pEC50", 7.64),
    ("Fc1ccc(CNc2ncccc2-c2nnc(Nc3ccc4c(c3)OCO4)o2)cc1F", "pEC50", 7.29),
    ("CS(=O)(=O)Nc1ccc(CNc2ncccc2-c2nnc(Nc3ccc4c(c3)OCO4)o2)cc1", "pEC50", 7.15),
    ("c1cnc(NCc2ccc3c(c2)OCO3)c(-c2nnc(Nc3ccc4c(c3)OCCO4)o2)c1", "pEC50", 7.74),
    ("c1cnc(NCc2cnccn2)c(-c2nnc(Nc3ccc4c(c3)OCCO4)o2)c1", "pEC50", 7.51),
    ("c1cnc(NCC2CCCO2)c(-c2nnc(Nc3ccc4c(c3)OCO4)o2)c1 (configuration not stated)", "pEC50", 6.48),
    ("c1ccc(CNc2nccnc2-c2nnc(Nc3ccc4c(c3)OCCO4)o2)nc1", "pEC50", 7.12),
    ("Cc1ccc(-c2nnc(Nc3ccc4c(c3)OCCO4)o2)c(NCc2ccccn2)n1", "pEC50", 7.00),
]

All figures here come from ChEMBL document CHEMBL1138169.
